experiment: CREB reporter modulators without forskolin, primary screen, cell-based, PC12, CRE-LacZ reporter, unstimulated (AID 1145)
experimental.setup: no forskolin, luminescence, 4.5 h, higher = more signal, called active from +8 up or from −8 down
So basically: z-score at 0.6 or higher? That is 1. Lower than 0.6? That is -1.

# example entries with known answers
{"columns": ["compound", "assigned.label"],
 "data": [
  ["COc1ccc([Si](C)(C)[C@H]2[C@H](CC(=O)N(CCO)Cc3ccccc3)O[C@@]3(C(=O)N(Cc4cccc(N5CCOC5=O)c4)c4ccccc43)[C@@H]2C)cc1", 1],
  ["CC(C)N1C(=O)C[C@@](C(=O)NCCCN(C)C)(c2ccc([N+](=O)[O-])cc2)[C@H]1c1ccc(CO)cc1", 1],
  ["CC(C)OC(=O)C=C1C[C@@H](c2ccc(C(F)(F)F)cc2)O[C@@H](c2ccc(C(F)(F)F)cc2)O1", -1],
  ["COc1ccc(CCN2C(=O)[C@@]3(Cc4ccccc42)c2ccccc2C(=O)N(Cc2ccccc2OC)[C@H]3c2ccc(CO)cc2)cc1", 1],
  ["COc1ccc([Si](C)(C)[C@@H]2[C@@H](CCn3cc([C@H](O)c4ccccc4)nn3)O[C@]3(C(=O)N(Cc4ccc(N5CCC5=O)cc4)c4ccccc43)[C@H]2C)cc1", 1],
  ["CC(C)[Si](C#C[Si](C(C)C)(C(C)C)C(C)C)(O[C@H](C)c1cn([C@H](CO)Cc2ccccc2)nn1)C(C)C", -1]
]}

Now take the following compound into account.
Data request: Item Cc1ccccc1C(O)C1C=CC2C(=O)N(C)C(=O)C2N1N(c1ccccc1)c1ccccc1 (configuration not stated) with z-score of 0.6 or above?
Data returned: -1
